These data points were gathered from PubChem BioAssay AID1508601.

# protocol details: nuclear p53 accumulation, HPV+ cells – imaging, p53-positive nuclei imaging, 24 h, 48 h (AID 1508601)
# experimental setup: 24/48 h, measured here: cell number at 24 h, Library stock concentration: 500 nM
The campaign covered roughly 5,700 compounds. About 85 (1%) were called active. Shown is part of a subset that was picked to be rich in actives.
# nuclei count, normalised listing for each entry below
outcome measure: nuclei count, normalised (%)

> print(dat)
                                   compound  recorded.measurement
1  OCC1OC(n2cnc3c2NC=NCC3O)CC1O (stereo unspecified)                   123
2  C=C1C(=O)OC(CCCCCCCC)C1C(=O)O (stereo unspecified)                   115
3                    N#CSc1cc(SC#N)c(N)nc1N                   108
4     CCOC(=O)c1sc(NC(=O)c2ccco2)c(SC#N)c1C                   118
5  Nc1ccn(C2OC(CO)C(O)C2F)c(=O)n1 (stereo unspecified)                   115
6  Nc1ccn(C2C=C(CO)C(O)C2O)c(=O)n1 (stereo unspecified)                   108

* * *

# p53-positive nuclei, normalised listing for each entry below
# assayed target: Cellular tumor antigen p53 (Homo sapiens)
# protocol details: nuclear p53 accumulation, HPV+ cells – imaging, p53-positive nuclei imaging, 24 h, 48 h (AID 1508601)
# experimental setup: 24/48 h, measured here: p53 positive nuclei at 24 h, Library stock concentration: 80 uM, stronger effect = higher value
Screen size: about 5,700 compounds; about 85 (1%) were called active. This excerpt belongs to a sample that is enriched for actives.
outcome measure: p53-positive nuclei, normalised (%)

> print(dat)
                                    compound                            assayed.target                  outcome.measure  recorded.measurement
 1  CSCCC(NC=O)C(=O)NC(CC(C)C)C(=O)NC(Cc1ccccc1)C(=O)O (stereo not given)  Cellular tumor antigen p53 (Homo sapiens)  p53-positive nuclei, normalised                -0.106
 2        CN1CCN(C(=S)SSC(=S)N2CCN(C)CC2)CC1  Cellular tumor antigen p53 (Homo sapiens)  p53-positive nuclei, normalised                -0.116
 3   CCCCN(Cc1ccc(C(=O)NO)cc1)C(=O)Nc1ccccc1  Cellular tumor antigen p53 (Homo sapiens)  p53-positive nuclei, normalised               -0.0551
 4       COc1ccc(Cn2ccc3ccc(C(=O)NO)cc32)cc1  Cellular tumor antigen p53 (Homo sapiens)  p53-positive nuclei, normalised               -0.0424
 5  CCC(C)C(NC(=O)C(C(C)CC)N(C)C(C)=O)C(=O)NC(C(=O)NC(CC(C)C)C(=O)[C@@]1(C)CO1)C(C)O (stereo not given in full)  Cellular tumor antigen p53 (Homo sapiens)  p53-positive nuclei, normalised                   124
 6  CC(C)(CO)c1cc2cc(NC(=O)C3(c4ccc5c(c4)OC(F)(F)O5)CC3)c(F)cc2n1CC(O)CO (stereo not given)  Cellular tumor antigen p53 (Homo sapiens)  p53-positive nuclei, normalised                0.0925
 7  CS(=O)(=O)c1ccc(C(CC2CCCC2)C(=O)Nc2nccs2)cc1 (stereo not given)  Cellular tumor antigen p53 (Homo sapiens)  p53-positive nuclei, normalised                -0.031
 8  COc1ccc(-c2ccc3ncc4c(c3c2)n(-c2ccc(N3CCNCC3)c(C(F)(F)F)c2)c(=O)n4C)cn1  Cellular tumor antigen p53 (Homo sapiens)  p53-positive nuclei, normalised                 0.126
 9  O=C(O)CCCC=CCC1C(O)CC(O)C1C=CC(O)COc1cccc(Cl)c1 (stereo not given)  Cellular tumor antigen p53 (Homo sapiens)  p53-positive nuclei, normalised                  0.18
10  CS(=O)(=O)c1cccc(CNc2nc(Nc3ccc4c(c3)CCC(=O)N4)ncc2C(F)(F)F)c1  Cellular tumor antigen p53 (Homo sapiens)  p53-positive nuclei, normalised               -0.0118
11  Fc1cc(-c2ccnc(Nc3ccc(-n4cnc(N5CCOCC5)n4)cc3)n2)cc(N2CCOCC2)c1  Cellular tumor antigen p53 (Homo sapiens)  p53-positive nuclei, normalised                   7.9
12  O=C(Cc1ccc(-c2ccc(OCCN3CCOCC3)cc2)cn1)NCc1ccccc1  Cellular tumor antigen p53 (Homo sapiens)  p53-positive nuclei, normalised               -0.0362
13  CCC(=O)N1CCN(c2ccc(-n3c(=O)ccc4cnc5ccc(-c6cnc7ccccc7c6)cc5c43)cc2C(F)(F)F)CC1  Cellular tumor antigen p53 (Homo sapiens)  p53-positive nuclei, normalised                  0.45
14  CC(C)CC(C(=O)NC(Cc1ccc(OCc2ccccc2)cc1)C(=O)NC(C)(C)C)N(C)Cc1ccc(C(C)(C)C)cc1 (stereo not given)  Cellular tumor antigen p53 (Homo sapiens)  p53-positive nuclei, normalised               -0.0604
15            O=Nc1c(O)[nH]c2c(Cl)c(Cl)ccc12  Cellular tumor antigen p53 (Homo sapiens)  p53-positive nuclei, normalised                 0.217
16  Nc1ccccc1NC(=O)c1ccc(CNC(=O)OCc2cccnc2)cc1  Cellular tumor antigen p53 (Homo sapiens)  p53-positive nuclei, normalised               -0.0702
17  COc1ccc(N(C(=O)Nc2c(C)cccc2C)c2cc(Nc3ccc(N4CCN(C)CC4)cc3OC)ncn2)c(OC)c1  Cellular tumor antigen p53 (Homo sapiens)  p53-positive nuclei, normalised                -0.103
18  CC(C)CC(=O)Nc1n[nH]c2c1CN(C(=O)C1CCN(C)CC1)C2(C)C  Cellular tumor antigen p53 (Homo sapiens)  p53-positive nuclei, normalised                -0.129
19               O=C(O)C=Cc1ccc(Cn2ccnc2)cc1  Cellular tumor antigen p53 (Homo sapiens)  p53-positive nuclei, normalised                0.0685
20  CN1CCN(c2ccc(Nc3c4ccccc4nc4ccccc34)cc2)CC1  Cellular tumor antigen p53 (Homo sapiens)  p53-positive nuclei, normalised               -0.0662
